test.method.notes: Thermal stability by thermogravimetric analysis (TGA)
Type: physicochemical
measurement.parameters: 25° C. to 550° C. at 20° C./min under nitrogen, then air to 700° C., platinum pan
measured.endpoint: Onset decomposing temperature (ODT) (°C)

Cc1nccn1CCC[n+]1ccn(CCC[n+]2ccn(C)c2C)c1C [Compound 11] = 326.2
Cc1n(C)cc[n+]1CCCn1cc[n+](CCCBr)c1C [Compound 5] = 239.4
Cc1nccn1CCC[n+]1ccn(C)c1C [Compound 3] = 287.8
Cc1n(C)cc[n+]1CCCBr = 215.8
Cc1n(C)cc[n+]1CCCn1cc[n+](CCCBr)c1C [Compound 10] = 277.8
Cc1nccn1CCC[n+]1ccn(CCC[n+]2ccn(C)c2C)c1C [Compound 6] = 329.6
Cc1n(C)cc[n+]1CCCn1cc[n+](CCCBr)c1C [Compound 9] = 212.2
Cc1nccn1CCC[n+]1ccn(C)c1C [Compound 4] = 293.9
Cc1nccn1C [Compound 1, 1,2-dimethylimidazole, reference compound] = 80.6
